Assay Notes: Quantitative High-Throughput drug screen in 47 multiple myeloma cell lines against the NCATS MIPE library collection: PE2_PLB cell viability assay (AID 1919869); note: nearly all actives have a fitted effect of over 35% in size; note: potency is the fitted concentration of half-maximal effect
Test Conditions: PE2_PLB myeloma cells viability, ATP luminescence, 48 h; series mostly up to 45.8 µM
Results filed as inconclusive are left out. Active and inactive are the calls of the source. Calls come from the whole dose curve; as a rule, active = well fitted cell-killing curve with a large enough effect; inconclusive = small, poorly fitted or top-dose-only effect, or effect the other way; inactive = no such curve, though single readings can be large or run the other way.
Metric: Potency

Query: Which Potency is listed for `O=C1NC(=O)C(=Cc2ccc3nccc(-c4ccncc4)c3c2)S1` ?
Result: 46.9 nM (active)

Query: And what about the molecule `C[C@H](NC(=O)Cc1cc(F)cc(F)c1)C(=O)N[C@H](C(=O)OC(C)(C)C)c1ccccc1` ?
Result: inactive

Query: Field entry: `COC[C@H](NC(=O)c1cnc(C)s1)C(=O)N[C@@H](COC)C(=O)N[C@@H](Cc1ccccc1)C(=O)[C@@]1(C)CO1`
Result: 83.3 nM (active)

Query: Next up: `CCCCOc1ccc(C(=O)Nc2ccc(F)cc2F)cc1`
Result: inactive

Query: Request: `CCc1cnn2c(NCc3ccc[n+]([O-])c3)cc(N3CCCC[C@@H]3CCO)nc12`
Result: 29.6 nM (active)

Further cases:
Query: Requested field: Potency. Item: `COc1cc2ncnc(Nc3cccc(Br)c3)c2cc1OC`
Result: 5900 nM (active)
